- Test system: CAL-27
- Protocol Summary: Anticancer activity against human CAL-27 cells assessed as reduction in cell survival incubated for 72 hrs by MTT assay
- Condition Description: CAL-27, 72 h
Property Measured: IC50 (nM)

> print(dat)
                                   compound  assay.system  property.measured  relation.qualifier  numeric.value
1  CC(=O)N(CC1CCN(c2ncc(C(=O)NO)cn2)CC1)C1(C(=O)NC(C)(C)C)CCNC1 (stereo not drawn)        CAL-27               IC50                   >          50000
2  CC(C)(C)n1nnnc1CNCC1CCN(c2ncc(C(=O)NO)cn2)CC1        CAL-27               IC50                   =           4300
3  O=C(NO)c1cnc(N2CCC(CNCc3nnnn3Cc3ccccc3)CC2)nc1        CAL-27               IC50                   =           5560
4  CC(=O)N(CC1CCN(c2ncc(C(=O)NO)cn2)CC1)C1(C(=O)NCCc2c[nH]c3ccccc23)CCNC1 (stereo not drawn)        CAL-27               IC50                   >          50000
5  Cc1ccc(C(=O)N(CC(=O)NC2CCCCC2)CC2CCN(c3ncc(C(=O)NO)cn3)CC2)c(C)c1        CAL-27               IC50                   =            821
6  Cn1cc(CNCC2CCN(c3ncc(C(=O)NO)cn3)CC2)c2ccccc21        CAL-27               IC50                   =              9
7  CC(C)c1ccc(C(=O)N(CC(=O)NC2CCCCC2)CC2CCN(c3ncc(C(=O)NO)cn3)CC2)cc1        CAL-27               IC50                   =            693
8  CC(C)c1ccc(C(=O)N(CC(=O)NCc2ccccc2)CC2CCN(c3ncc(C(=O)NO)cn3)CC2)cc1        CAL-27               IC50                   =           2170
